Where do the numbers come from? From PubChem BioAssay (NCI).

Tested on: MCF7 breast
Test: NCI tumour cell line growth inhibition, 48 h
*1 amine or outer side, *2 acyl side, *3 side chain or, on linkers, in order; H or OH if unused. Where a SMILES comes first, the peptide text is derived from it. Bridges are numbered along the chain shown (N, C = ends). Roman numbers before positions name the chains, in order. X23 = CCCCCCCCCCCCCCC(=O)NC(CCCCN[*:2])C(=O)CN1CCCC1C(=O)[*:1]
Record form. Attribute: GI50. Fill in for each entry.

Field: example entries. Status: answers known.
Prompt: So what's the measured GI50 for this one? CCCCCCCCCCCCCCC(=O)NC(CCCCNC(=O)C1CCCN1C(=O)C(CCCCN)NC(=O)C(CCCCN)NC(=O)C(CCCCN)NC(=O)C(CCCNC(=N)N)NC(=O)C(CCCCN)NC(=O)C(N)C(C)C)C(=O)CN1CCCC1C(=O)NCC(=O)NC(Cc1ccccc1)C(=O)N1CCCC1C(=O)NC(CO)C(=O)NC(Cc1ccc(O)cc1)C(=O)NC(CCCCN)C(=O)NC(CC(C)C)C(=O)NC(CCCNC(=N)N)C(=O)N1CCCC1C(=O)NCC(N)=O (stereo not given) (I: GFPSYKLRPG-NH2 / II: H-VKRKKKP; linker I:N-II:C via X23; configuration not given here)
Completion: 15.4 µM

Prompt: Then this compound: "NS(=O)(=O)c1cccc(-c2cc3ccncc3cc2OCc2ccccc2)c1"
Completion: 10.5 µM

Prompt: Then this compound: "CCOC(=O)C1=C(C)NC(C)=C(C(=O)OCC)C1c1cc(Br)c(O)c(OC)c1"
Completion: 4.41 µM

Prompt: Then this compound: CCCCCCCCCCCCNC(=O)[C@H]1CSC(c2cc(Br)cs2)N1 (stereo not given in full)
Completion: 2.16 µM

Then this compound:
Prompt: So what's the measured GI50 for this one? "O=c1c(-c2ccc3c(c2)OCO3)coc2c(CO)c(O)ccc12"
Completion: 2.72 µM

###

Test system: NCI-H522 lung
Test: NCI tumour cell line growth inhibition, 48 h
Threshold check on TGI: at or above 40 µM gives Met, strictly below gives Not met.

Prompt: Test whether the compound O=C(O)CC1C(=O)OC2C3COC(=O)c4cc(O)c(O)c(O)c4-c4c(cc(O)c(O)c4O)C(=O)OC2C(OC(=O)c2cc(O)c(O)c4c2C1C(O)C(=O)O4)C(OC(=O)c1cc(O)c(O)c(O)c1)O3 (configuration not stated) records TGI of 40 µM or higher.
Completion: Met

Prompt: Then this compound: "COc1cc(CCC(=O)O)c2cc3ccccc3cc2c1O"
Completion: Met

Prompt: Then this compound: CC(C)(C)C1CCP(=O)(c2ccccc2)CC1 (configuration not stated)
Completion: Met

Prompt: Then this compound: CC(C)(C)OC(=O)N1CCCC1C(=O)NCCNc1ccc(NCCNC(=O)C2CCCN2C(=O)OC(C)(C)C)c2c1C(=O)c1ccccc1C2=O (configuration not stated)
Completion: Not met

Prompt: Then this compound: "[O-]/N=N\c1on[n+](CCc2ccccc2)c1Cc1c(/N=N/[O-])on[n+]1CCc1ccccc1"
Completion: Met

Alright, here's another compound for you.
Prompt: Test whether the compound "O=C(OCC(Cl)(Cl)Cl)N1CC[C@@H](C2CCCCC2)C1" records TGI of 40 µM or higher.
Completion: Met

###

Record form. Attribute: TGI. Fill in for each entry.
Tested on: M19-MEL melanoma
Test: NCI tumour cell line growth inhibition, 48 h

Field: example entries. Status: answers known.
Prompt: So what's the measured TGI for this one? CC[C@@]1(OC(=O)C(N)CCC(=O)O)C(=O)OCc2c1cc1n(c2=O)Cc2cc3ccccc3nc2-1 (stereo partly drawn)
Completion: 1.49 µM

Prompt: Then this molecule: "CCOC(=O)c1ncn2c1[nH]c(=O)c1ccccc12"
Completion: > 100 µM

Then this molecule:
Prompt: So what's the measured TGI for this one? "O=C(O)/C(=C/c1ccccc1[N+](=O)[O-])c1cccs1"
Completion: > 100 µM

###

System: M14 melanoma
Test: NCI tumour cell line growth inhibition, 48 h
Reported property: TGI

Field: example entries. Status: answers known.
Prompt: So what's the measured TGI for this one? "Nc1ncnc2c1ccn2CC=C(CO)CO"
Completion: > 100 µM

Prompt: Then this compound: "CN(C)CCCNC(=O)c1cccc2nc3ccccc3nc12"
Completion: > 53.3 µM

Prompt: Then this compound: "CCOc1ccc(/C=N\N2C(=O)c3ccccc3C2=O)cc1"
Completion: > 100 µM

Prompt: Then this compound: "O=C1NC(=O)C(N2CCc3ccccc32)=C1c1ccc(Cl)cc1"
Completion: > 25 µM

Prompt: Then this compound: "O=c1c2cc(Br)ccc2[nH]c(=S)n1-c1ccccc1"
Completion: > 100 µM

Then this compound:
Prompt: So what's the measured TGI for this one? "O=C(O)/C(=C/c1ccccc1[N+](=O)[O-])c1cccs1"
Completion: > 100 µM

###

Tested on: ACHN renal
Test: NCI tumour cell line growth inhibition, 48 h
Record form. Attribute: TGI. Fill in for each entry.
Give bare numbers, in µM.

Prompt: So what's the measured TGI for this one? "C[C@@H](Oc1cc(-c2cnn(C3CC4(CNC4)C3)c2)cnc1N)c1c(Cl)ccc(F)c1Cl"
Completion: 18.3

Then this compound:
Prompt: So what's the measured TGI for this one? "O=[N+]([O-])c1ccc(Oc2cccc(C(F)(F)F)c2)c([N+](=O)[O-])c1"
Completion: 13.8

###

Tested on: A549 NSCLC
Test: NCI tumour cell line growth inhibition, 48 h
Record form. Attribute: TGI. Fill in for each entry.

Field: example entries. Status: answers known.
Prompt: So what's the measured TGI for this one? "COC(=O)C(=O)c1cc2ccccc2n1S(=O)(=O)c1ccccc1"
Completion: > 100 µM

Prompt: Then this compound: COc1ccc(C2c3cc4c(c(OC)c3CC3OCC(=O)C32)OCO4)cc1OC (stereo not drawn)
Completion: > 100 µM

More entries:
Prompt: So what's the measured TGI for this one? "O=C1NC(=O)/C(=C/c2ccc(S(=O)(=O)N/N=C/c3ccccc3)cc2)N1"
Completion: > 100 µM

###

Record form. Attribute: TGI. Fill in for each entry.
Tested on: SK-MEL-5 melanoma
Test: NCI tumour cell line growth inhibition, 48 h

Hi! Can you tell me TGI for each of these compounds?
1. NC(CCC(=O)NC(CSC(=O)N(O)c1ccc(Cl)cc1)C(=O)NCC(=O)O)C(=O)O (stereo unspecified)
2. O=C(Cc1nc2ccc(C(=O)c3ccccc3)cc2[nH]c1=O)C(=O)Nc1ccc(C(F)(F)F)cc1[N+](=O)[O-]
3. O=C(/C=C/c1cc(F)ccc1F)OCCc1ccccc1
4. CC(C)(C)c1cc(Oc2ccc(C#N)c(C#N)c2)cc(C(C)(C)C)c1

Completion:
1: > 0.5 µM; 2: > 100 µM; 3: > 100 µM; 4: > 100 µM

###

System: A498 renal
Test: NCI tumour cell line growth inhibition, 48 h
Reported property: log10 TGI (log10 of the value in µM)
log10 TGI, µM

Prompt: Lab request: please report log10 TGI under test system A498 renal for CC1(C)CC(=O)C(CC2C(=O)c3ccccc3C2=O)C(=O)C1C(=O)C(=O)Nc1cccc2ccc(O)cc12 (stereo unspecified)
Completion: 1.84

Prompt: Then this compound: "CCCCCCCCn1ccc2cc(NC(=O)Cn3cc(CN4CCC(C)CC4)nn3)ccc21"
Completion: 0.51

Prompt: Then this compound: O=C1CC(NC2CC(=O)c3c(Br)sc(Br)c32)c2c(Br)sc(Br)c21 (stereo unspecified)
Completion: 1.51

Prompt: Then this compound: "COc1cc2c(cc1OCc1ccccc1)N=C[C@@H]1C[C@@H](F)CN1C2=O"
Completion: 0.54

Prompt: Then this compound: "COc1ccc(/C=C/c2ccnc3ccccc23)cc1"
Completion: 1.45

Prompt: Then this compound: "CCSC1=C(C#N)C2(CCCCC2)C2=C(CC(C)(C)CC2=O)N1"
Completion: 1.81

Prompt: Then this compound: "S=C1NCCN1C(=S)NC1CCCCC1"
Completion: 1.59

Prompt: Then this compound: "N#Cc1c(N)nc2c(N=Nc3ccccc3)c(N)nn2c1Nc1ccccc1"
Completion: 1.77

Then this compound:
Prompt: Lab request: please report log10 TGI under test system A498 renal for "Cc1cc(O)c2c(c1)C(=O)C=C(Br)C2=O"
Completion: 1.58

###

System: NCI-H460 lung
Test: NCI tumour cell line growth inhibition, 48 h
Reported property: TGI

Prompt: So what's the measured TGI for this one? "CCn1c(SCC(=O)NNC(=S)Nc2ccc(Cl)cc2)nc2ccccc2c1=O"
Completion: > 100 µM

Prompt: Then this compound: "Oc1ccc(NCc2cc(O)ccc2O)cc1"
Completion: 39.1 µM

Prompt: Then this compound: "N=c1oc2ccc([N+](=O)[O-])cc2cc1C(=O)Nc1ccccn1"
Completion: > 100 µM

Hi! Can you tell me TGI for each of these compounds?
1. Cc1cc(C(=O)N2CCN(C)CC2)c2c(=O)n(-c3ccccc3)c(=O)n(CC(O)CN3CCN(c4ncccn4)CC3)c2n1 (configuration not stated)
2. OCCSCc1cc(Cl)cc(Cl)c1O
3. CC(=O)N1N=C(c2ccc3ccccc3c2O)CC1c1ccc(Cl)cc1Cl (configuration not stated)

Completion:
1: > 100 µM; 2: > 100 µM; 3: > 100 µM
